This listing pairs compounds with measured melting point.

Cc1cc(=O)on1C(=O)c1ccc(Cl)cc1Cl	137 to 139 °C
COC(=O)c1c(C(=O)OC)n(Cc2cccc(C(N)=S)c2)c2ccccc12	176 to 178 °C
O=C(O)CCc1ccc(C=CC(=O)c2ccccc2)cc1	159 to 160 °C
CCCCCC(O)c1cccc(OCc2cccc(C(N)=O)c2)c1 (stereo unspecified)	97 to 98 °C
Cc1nnc(NCc2ccccc2)s1	140 °C

Now look at this one.
Query: melting point; subject: O=S(=O)(Nc1ccc2c(OCc3nc(-c4ccc(F)cc4)sc3Br)cccc2c1)C(F)(F)F
Response: 139 to 140 °C
